Target under test: CYP3A4 (Homo sapiens, UniProt P08684)
Sequence (P08684 whole entry): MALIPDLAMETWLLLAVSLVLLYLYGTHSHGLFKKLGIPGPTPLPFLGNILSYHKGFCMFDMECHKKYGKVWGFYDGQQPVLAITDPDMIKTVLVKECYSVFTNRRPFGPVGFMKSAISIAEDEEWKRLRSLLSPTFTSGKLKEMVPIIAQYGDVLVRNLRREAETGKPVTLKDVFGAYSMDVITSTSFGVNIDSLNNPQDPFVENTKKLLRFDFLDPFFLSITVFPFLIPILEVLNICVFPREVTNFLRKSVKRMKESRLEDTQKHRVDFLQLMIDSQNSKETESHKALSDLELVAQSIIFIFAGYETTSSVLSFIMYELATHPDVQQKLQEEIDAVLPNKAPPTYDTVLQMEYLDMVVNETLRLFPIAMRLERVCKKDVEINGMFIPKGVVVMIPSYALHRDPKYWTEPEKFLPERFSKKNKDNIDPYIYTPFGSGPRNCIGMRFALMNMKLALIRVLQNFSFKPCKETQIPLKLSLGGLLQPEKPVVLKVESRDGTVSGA
Condition set: read-out: IC50, CYP3A4; substrate testosterone, without pre-incubation, 0.001–0.25 µM
pIC50: −log10 of the molar value.
Assay readout: pIC50

Lab note: measured pIC50 of Cc1cc(N2CCN(c3ccc(C(=O)Nc4ccc(F)cc4)cc3)CC2)ccc1OC[C@@H]1CO[C@@](Cn2cncn2)(c2ccc(F)cc2F)C1 was < 6.60

====

Target under test: CYP3A4 (Homo sapiens, UniProt P08684)
Condition set: read-out: IC50, CYP3A4; substrate testosterone, 30-min preincubations with or without NADPH
Assay readout: IC50 (nM)
Response body: numeric value in nM, unit text excluded.

IC50 reading for Cc1cc(N2CCN(c3ccc(C(=O)Nc4ccc(F)cc4)cc3)CC2)ccc1OC[C@@H]1CO[C@@](Cn2cncn2)(c2ccc(F)cc2F)C1 : 150

====

Test system: CYP1A2
Protocol notes: clinical
Condition set: both, human, plasma, po, 180 mg, probe caffeine
Assay readout: Cmax (ng/mL)
Quick reminder: number only, in ng/mL, skip the unit.

In plain terms, Cn1c(=O)c2c(ncn2C)n(C)c1=O [Caffeine, caffeine] has a documented Cmax of 3280
